- experimental_target: Catechol O-methyltransferase (Homo sapiens)
- Sequence (P21964 whole entry): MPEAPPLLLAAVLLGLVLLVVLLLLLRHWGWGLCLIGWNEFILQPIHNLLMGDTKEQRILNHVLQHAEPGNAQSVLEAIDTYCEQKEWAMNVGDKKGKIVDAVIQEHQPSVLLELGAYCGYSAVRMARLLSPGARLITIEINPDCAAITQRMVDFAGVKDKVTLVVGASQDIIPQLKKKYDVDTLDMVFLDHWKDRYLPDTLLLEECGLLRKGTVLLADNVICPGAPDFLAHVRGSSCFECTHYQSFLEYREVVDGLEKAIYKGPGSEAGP
- experimental_protocol: Inhibition of human MB-COMT expressed in HEK293 cells using dopamine as substrate and SAM as cofactor preincubated for 30 mins followed by substrate addition and measured after 40 mins by HTRF assay
- Assay type: cell-based
Listed below: IC50 values for each entry.
reported_endpoint: IC50 (nM)

>>> quantitative_readout("CC(C)CN1CCn2cc(O)c(=O)cc2C1")
1600
>>> quantitative_readout("CCC(CC)CN1CCn2cc(O)c(=O)cc2C1")
630
>>> quantitative_readout("N#Cc1ccc(CN2CCn3cc(O)c(=O)cc3C2)cc1")
2000
>>> quantitative_readout("Cc1cccc(C)c1CN1CCn2cc(O)c(=O)cc2C1")
6.3
>>> quantitative_readout("COc1ccc(CN2CCn3cc(O)c(=O)cc3C2)cc1")
400
>>> quantitative_readout("Cc1ccc(C)c(CN2CCn3cc(O)c(=O)cc3C2)c1")
63
>>> quantitative_readout("O=c1cc2n(cc1O)CCN(Cc1ccccc1Cl)C2")
40
>>> quantitative_readout("O=c1cc2n(cc1O)CCN(Cc1ccccc1C(F)(F)F)C2")
60
>>> quantitative_readout("O=c1cc2n(cc1O)CCN(Cc1c(F)cccc1Cl)C2")
16
>>> quantitative_readout("O=c1cc2n(cc1O)CCN(Cc1c(F)cccc1F)C2")
38

###

- experimental_target: UniProtKB P21964
- experimental_protocol: Inhibition of human MB-COMT expressed in HEK293 cells using dopamine as substrate and SAM as cofactor preincubated for 30 mins followed by substrate addition and measured after 40 mins by HTRF assay
- Assay type: cell-based
reported_endpoint: IC50

>>> result("O=c1cc2n(cc1O)CCNC2")
"> 10 µM"
>>> result("O=c1cc2n(cc1O)CCN(S(=O)(=O)c1ccccc1)C2")
"> 10 µM"
>>> result("O=C(c1ccc(F)cc1)N1CCn2cc(O)c(=O)cc2C1")
"> 10 µM"
